- Assay Explanation: self-splicing fitness, log relative to wild type (ln ratio); higher = more splicing; Tetrahymena group I intron in knt gene, E. coli kanamycin selection, DiMSum; sequences stand for … in CUCUCU…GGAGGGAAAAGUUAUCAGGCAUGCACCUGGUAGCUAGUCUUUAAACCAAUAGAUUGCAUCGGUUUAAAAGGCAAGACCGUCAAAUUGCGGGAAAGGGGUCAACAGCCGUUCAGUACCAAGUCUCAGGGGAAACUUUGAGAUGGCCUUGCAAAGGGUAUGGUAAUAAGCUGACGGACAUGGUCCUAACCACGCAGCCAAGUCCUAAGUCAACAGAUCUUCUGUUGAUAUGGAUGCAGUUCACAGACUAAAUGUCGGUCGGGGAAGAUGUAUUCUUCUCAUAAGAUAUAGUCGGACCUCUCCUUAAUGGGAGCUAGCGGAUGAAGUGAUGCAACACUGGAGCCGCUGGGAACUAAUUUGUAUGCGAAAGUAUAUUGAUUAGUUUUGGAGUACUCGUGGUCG;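 note: selection with 25 µg/mL kanamycin versus none on LB agar overnight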
- Run Parameters: 30 °C
Binary call on self-splicing fitness (ln): condition met from -1 upward, condition not met beneath that.

monomer_sequence=UGGGAGCAAUAUUACGUUAG discrete_label="condition not met"
monomer_sequence=CUUUAGCAAUAUUACGCAAC discrete_label="condition not met"
monomer_sequence=AACGAGCAAUAUUACGGGUU discrete_label="condition not met"
monomer_sequence=UCCUAGCAAUAUUACGCCUA discrete_label="condition not met"
monomer_sequence=UCGAAGCAAUAUUACGACCA discrete_label="condition not met"
monomer_sequence=GGAGAGCAAUAUUACGGUUA discrete_label="condition not met"
monomer_sequence=AGACAGCAAUAUUACGAACC discrete_label="condition met"
monomer_sequence=CUUGAGCAAUAUUACGGCUU discrete_label="condition not met"
monomer_sequence=UCGCAGCAAUAUUACGCCAA discrete_label="condition not met"
monomer_sequence=AUGUAGCAAUAUUACGAUAU discrete_label="condition met"
monomer_sequence=UUACAGCAAUAUUACGCGCU discrete_label="condition not met"
monomer_sequence=AGCAAGCAAUAUUACGGACU discrete_label="condition met"
monomer_sequence=CCCAAGCAAUAUUACGUCGG discrete_label="condition not met"
monomer_sequence=CUAAAGCAAUAUUACGGCAA discrete_label="condition not met"
monomer_sequence=UUUGAGCAAUAUUACGCCGG discrete_label="condition not met"
monomer_sequence=CGCCAGCAAUAUUACGUCAU discrete_label="condition not met"
monomer_sequence=ACCGAGCAAUAUUACGCACC discrete_label="condition not met"
monomer_sequence=CGUGAGCAAUAUUACGGCCU discrete_label="condition not met"
monomer_sequence=UACUAGCAAUAUUACGCAGC discrete_label="condition not met"
monomer_sequence=AACUAGCAAUAUUACGACCU discrete_label="condition met"
monomer_sequence=CACUAGCAAUAUUACGACUU discrete_label="condition not met"
monomer_sequence=UGACAGCAAUAUUACGACUC discrete_label="condition not met"
monomer_sequence=CGGGAGCAAUAUUACGCGUU discrete_label="condition not met"
monomer_sequence=GUCAAGCAAUAUUACGAUUA discrete_label="condition not met"
monomer_sequence=CAAAAGCAAUAUUACGUUCA discrete_label="condition not met"
monomer_sequence=CAUUAGCAAUAUUACGGUAG discrete_label="condition met"
monomer_sequence=UAUUAGCAAUAUUACGCUCG discrete_label="condition met"
monomer_sequence=GGUCAGCAAUAUUACGUUCC discrete_label="condition met"
monomer_sequence=UUUGAGCAAUAUUACGACUC discrete_label="condition not met"
monomer_sequence=UUCCAGCAAUAUUACGGAUU discrete_label="condition not met"
monomer_sequence=GUGAAGCAAUAUUACGUCUG discrete_label="condition not met"
monomer_sequence=AAUGAGCAAUAUUACGGGUU discrete_label="condition not met"
monomer_sequence=UUGCAGCAAUAUUACGUAAG discrete_label="condition met"
monomer_sequence=CAGGAGCAAUAUUACGAUAG discrete_label="condition not met"
monomer_sequence=CUCCAGCAAUAUUACGUGCU discrete_label="condition not met"
monomer_sequence=CAUGAGCAAUAUUACGGAGG discrete_label="condition not met"
monomer_sequence=AGUCAGCAAUAUUACGAACA discrete_label="condition met"
monomer_sequence=AGUUAGCAAUAUUACGCUGU discrete_label="condition not met"
monomer_sequence=AUCAAGCAAUAUUACGAGGC discrete_label="condition not met"
monomer_sequence=UUCCAGCAAUAUUACGCUAU discrete_label="condition not met"
monomer_sequence=UUGCAGCAAUAUUACGUAGU discrete_label="condition not met"
monomer_sequence=AAACAGCAAUAUUACGCCAG discrete_label="condition not met"
monomer_sequence=AUGGAGCAAUAUUACGACAC discrete_label="condition not met"
monomer_sequence=CGAAAGCAAUAUUACGAAAU discrete_label="condition not met"
monomer_sequence=ACGAAGCAAUAUUACGGGAG discrete_label="condition not met"
monomer_sequence=CUUCAGCAAUAUUACGAGGG discrete_label="condition not met"
monomer_sequence=CGAGAGCAAUAUUACGACGG discrete_label="condition met"
monomer_sequence=GUUAAGCAAUAUUACGACUG discrete_label="condition not met"
monomer_sequence=UGGCAGCAAUAUUACGCAUC discrete_label="condition not met"
monomer_sequence=UUAUAGCAAUAUUACGGAUC discrete_label="condition not met"
monomer_sequence=UUCAAGCAAUAUUACGGCUA discrete_label="condition met"
monomer_sequence=AUACAGCAAUAUUACGCGAU discrete_label="condition not met"
monomer_sequence=CAGAAGCAAUAUUACGUAAC discrete_label="condition not met"
monomer_sequence=GGACAGCAAUAUUACGUGAU discrete_label="condition met"
monomer_sequence=CGUUAGCAAUAUUACGUUAG discrete_label="condition met"
monomer_sequence=GAGUAGCAAUAUUACGCUAG discrete_label="condition not met"
monomer_sequence=AAAUAGCAAUAUUACGGGCG discrete_label="condition not met"
monomer_sequence=ACGGAGCAAUAUUACGCGCA discrete_label="condition not met"
monomer_sequence=UAAAAGCAAUAUUACGUGUA discrete_label="condition not met"
monomer_sequence=CGAGAGCAAUAUUACGUCGG discrete_label="condition not met"
monomer_sequence=CCACAGCAAUAUUACGUGUG discrete_label="condition not met"
monomer_sequence=CGAAAGCAAUAUUACGGUGC discrete_label="condition not met"
monomer_sequence=GUGAAGCAAUAUUACGGUGA discrete_label="condition met"
monomer_sequence=GAAAAGCAAUAUUACGCUAG discrete_label="condition not met"
monomer_sequence=CGCCAGCAAUAUUACGCCAG discrete_label="condition met"
